B1: PHTF1 (parent)
chain: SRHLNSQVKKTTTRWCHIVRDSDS

Variants of: B1
Assay Method Text: protein stability index of a GFP-peptide fusion (GPS, HEK-293T) (PSI 1-6); higher = more stable;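 note: lentivirally expressed fusions sorted by FACS into six bins by GFP to DsRed ratio, PSI derived from sequencing read proportions per bin multiplied by bin number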
Reported Conditions: c terminus: a fixed tail appended
Measured Endpoint: protein stability index
I'd appreciate a reply containing only the number, no unit.

## Task Find the measured protein stability index of S1D and report it.
## Result 3.06

## Task Give protein stability index for the following variant: D21S
## Result 2.14

## Task // fetch protein stability index given entry T13Y
## Result 1.72
